Test system: giant foxtail (Setaria faberii)
PROCEDURE DETAILS: Test A pre-/postemergence plant response
Assay type: in vivo
CONDITION DESCRIPTION: Postemergence, 500 g ai/ha; visual injury, 0 to 100 scale (0 no effect, 100 complete control), approx. ten days
Below, each entry is listed with its recorded Foxtail, Giant plant response rating.
Give the value as a plain number.

Examples with answers:
- MOLECULE: "O=C(C1=C(O)C2CCC(C2)C1=O)c1cnc(-c2ccsc2)n(CC2CCCO2)c1=O (centres unmarked) [Compound 229]"
  Foxtail, Giant plant response rating: 100
- MOLECULE: "Cc1ccccc1-n1c(-c2cc(F)cc(F)c2)ncc(C(=O)C2=C(O)CCCC2=O)c1=O [Compound 159]"
  Foxtail, Giant plant response rating: 100
- MOLECULE: "CCc1ccc(-n2c(-c3cc(F)cc(F)c3)ncc(C(=O)C3=C(O)CCCC3=O)c2=O)cc1 [Compound 158]"
  Foxtail, Giant plant response rating: 90
- MOLECULE: "O=C1CCCC(O)=C1C(=O)c1cnc(-c2cc(F)c(F)c(F)c2)n(C2CCCCC2)c1=O [Compound 205]"
  Foxtail, Giant plant response rating: 90
- MOLECULE: "COc1ccc(-n2c(-c3cccc(F)c3)ncc(C(=O)C3=C(O)CCCC3=O)c2=O)cc1 [Compound 203]"
  Foxtail, Giant plant response rating: 80

*Q* Recorded Foxtail, Giant plant response rating for COCCn1c(-c2ccsc2)ncc(C(=O)C2=C(O)C3CCC(C3)C2=O)c1=O (centres unmarked) [Compound 228] , please?
*A* 90

*Q* Similarly, COCCn1c(-c2cccc(C)c2)ncc(C(=O)C2=C(O)C3CCC(C3)C2=O)c1=O (centres unmarked) [Compound 233] ?
*A* 90

*Q* Similarly, Cc1cccc(-c2ncc(C(=O)C3=C(O)CCCC3=O)c(=O)n2C2CCCCC2)c1 [Compound 185] ?
*A* 80
